- Test target: MAP kinase p38 (Homo sapiens, UniProt O15264+Q15759+Q16539+P53778)
- Assay name: Inhibition of Mitogen-activated protein kinase p38
- Type: protein assay
Observed property: IC50 (nM)
Numbers only, in nM.

Would you mind giving IC50 for every compound in the list below?
1. C[C@H](Nc1nccc(-c2cc(N3CCNCC3)nnc2-c2cccc(C(F)(F)F)c2)n1)c1ccccc1
2. C[C@H](Nc1nccc(-c2cc(N3CCCCC3)nnc2-c2cccc(C(F)(F)F)c2)n1)c1ccccc1
3. C[C@H](Nc1nccc(-c2cc(N3CCN(C)CC3)nnc2-c2cccc(C(F)(F)F)c2)n1)c1ccccc1
4. C[C@H](Nc1nccc(-c2cc(N(C)CCN(C)C)nnc2-c2cccc(C(F)(F)F)c2)n1)c1ccccc1
5. C[C@H](Nc1nccc(-c2nc(C3CCNCC3)n(C)c2-c2cccc(C(F)(F)F)c2)n1)c1ccccc1
6. CC1CCN(c2cc(-c3ccnc(N[C@@H](C)c4ccccc4)n3)c(-c3cccc(C(F)(F)F)c3)nn2)CC1
7. C[C@H](Nc1nccc(-c2cc(N(C)C)nnc2-c2cccc(C(F)(F)F)c2)n1)c1ccccc1
8. C[C@H](Nc1nccc(-c2cc(N3CCOCC3)nnc2-c2cccc(C(F)(F)F)c2)n1)c1ccccc1

A.
0.6
20.1
1.9
1.4
12000
7.4
2.5
2.6

---

- Test target: Mitogen-activated protein kinase 9 (Homo sapiens)
- Sequence (P45984 whole entry): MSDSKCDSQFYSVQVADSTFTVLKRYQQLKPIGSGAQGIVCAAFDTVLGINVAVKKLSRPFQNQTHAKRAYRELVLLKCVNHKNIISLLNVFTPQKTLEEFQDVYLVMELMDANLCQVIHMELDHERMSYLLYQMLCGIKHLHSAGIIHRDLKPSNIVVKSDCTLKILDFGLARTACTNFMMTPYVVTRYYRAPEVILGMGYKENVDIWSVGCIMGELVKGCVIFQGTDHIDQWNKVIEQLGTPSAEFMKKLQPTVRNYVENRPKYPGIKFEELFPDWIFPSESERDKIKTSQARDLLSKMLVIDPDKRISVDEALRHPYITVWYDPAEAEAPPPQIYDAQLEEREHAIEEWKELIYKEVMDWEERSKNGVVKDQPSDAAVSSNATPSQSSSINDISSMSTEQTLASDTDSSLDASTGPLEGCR
- Assay name: Inhibition of JNK2-alpha-2 kinase
Observed property: IC50 (µM)
One number for each entry, in µM.

Field IC50 (entry "C[C@H](Nc1nccc(-c2cc(N3CCOCC3)nnc2-c2cccc(C(F)(F)F)c2)n1)c1ccccc1" ) reads 1.4
